Data provenance: patent US8426447B2

SUBJECT OF TEST: BACE1 (Homo sapiens)
Sequence (P56817 46-501, species assumed): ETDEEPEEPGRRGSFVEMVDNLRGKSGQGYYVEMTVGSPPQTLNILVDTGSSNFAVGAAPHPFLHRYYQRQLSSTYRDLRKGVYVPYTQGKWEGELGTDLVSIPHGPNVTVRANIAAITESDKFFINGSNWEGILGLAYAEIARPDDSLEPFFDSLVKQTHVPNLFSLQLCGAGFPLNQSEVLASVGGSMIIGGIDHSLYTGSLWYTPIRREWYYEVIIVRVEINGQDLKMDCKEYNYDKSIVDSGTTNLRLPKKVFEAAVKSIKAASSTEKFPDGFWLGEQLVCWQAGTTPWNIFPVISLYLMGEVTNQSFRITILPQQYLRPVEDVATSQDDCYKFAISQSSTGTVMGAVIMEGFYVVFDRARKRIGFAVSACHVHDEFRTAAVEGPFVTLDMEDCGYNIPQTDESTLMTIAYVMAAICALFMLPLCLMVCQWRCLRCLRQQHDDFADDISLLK
METHOD: In Vitro Enzymatic BACE FRET (Fluorescence Resonance Energy Transfer) Assay
Format: biochemical
CONDITIONS: read-out: BACE1 FRET assay
Each entry below lists one item and its recorded IC50 value.

Worked cases, IC50 given:
1. CC(C)(C)CNc1cc2c(cn1)Oc1ccc(-c3cccnc3)cc1[C@@]21COC(N)=N1: < 100 nM
2. NC1=N[C@@]2(CO1)c1cc(-c3cccnc3)ccc1Oc1cnc(N3CCC4(CC3)OCCO4)cc12: < 100 nM

Query: Give the measured IC50 of "Cc1occc1-c1ccc2c(c1)[C@@]1(COC(N)=N1)c1cc(OCC(C)(C)C)ccc1O2" .
Response: 100 to 1000 nM

Query: Queued: "COC1CN(c2cc(F)c3c(c2)[C@]2(COC(N)=N2)c2cc(-c4cccnc4)ccc2O3)C1"
Response: < 100 nM
